Give measured relative integration efficiency (log2) for each item. Keep answers brief.
B1: library; a variant is named by its letters at N, in order (parent)
chain: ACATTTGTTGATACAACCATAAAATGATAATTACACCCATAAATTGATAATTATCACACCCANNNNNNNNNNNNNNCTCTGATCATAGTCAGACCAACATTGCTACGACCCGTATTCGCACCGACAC

Variants of: B1
experiment: relative integration efficiency (T-RL orientation) vs wild-type transposon end (log2 (normalized fold change)); transposon end mutated: right end (5 bp flank + 75 bp right end); higher = more efficient transposition
settings: with VchCAST RNA-guided transposition machinery (E. coli BL21(DE3) host, lacZ target)
One number for each entry.

Below: 4 variants and their reported relative integration efficiency (log2).
TAAATTGATATTGC C36A; 0.41
TAAATTGATATTGC A3T; -0.114
ATTTAACTATAACG A53C; -1.32
ATTTAACTATAACG T28C; -1.29

State recorded relative integration efficiency (log2) for all listed variants.
1. TAAATTGATATTGC C61G
2. ATTTAACTATAACG A43G
3. TAAATTGATATTGC T31A
4. TAAACTGATATTGC
5. TAAATTGATATTGC G26A
6. TAAATTGATATTGC T48A
7. ATTTAACTATAACG A39C

0.142
-0.724
-0.436
-0.0927
-0.553
0.196
-2.44

State recorded relative integration efficiency (log2) for all listed variants.
1. ATTTAACTATAACG A43C
2. ATTTAACTATAACG A19T
3. TAAATTGATATTGC A42C
4. ATTTAACTATAACG A13C
5. TTTTATGATATTGC
6. TAAATGGATATTGC
7. TAAATTGATATTGC A11T

1: -0.798; 2: -1.53; 3: -0.945; 4: -0.7; 5: -0.0751; 6: -0.161; 7: 0.176

State recorded relative integration efficiency (log2) for all listed variants.
1. TAAATTGATATTGT
2. TAAATTGATATTGC T6A

[0.127, -5.81]

State recorded relative integration efficiency (log2) for all listed variants.
1. ATTTAACTATAACG T52G
2. TAAATTGATATTGC A29G
3. ATTTTTGATATTGC
4. TAAATTGATATTGC A58G
5. TAATAACATATTGC
6. ATTTAACTATAACG A39T
7. ATTTAACTATAACG G7C

1. -1.31
2. -0.169
3. -0.244
4. -0.236
5. -0.969
6. -1.34
7. -1.39

State recorded relative integration efficiency (log2) for all listed variants.
1. TAAATTGAGATTGC
2. TAAATTGATATTGG C77G
3. TAAATTGATATTGC T48C

-0.339
-0.0309
-0.402

State recorded relative integration efficiency (log2) for all listed variants.
1. TAAATTGATATTGC C34A
2. TAAATTGATATTGC T4C
3. TAAATTGATATTGC A43T

[-0.0537, -0.0535, -0.127]

State recorded relative integration efficiency (log2) for all listed variants.
1. ATTTAACTATAACG A33C
2. TAAATTGATATTGC C37T

[-1.12, -0.229]

State recorded relative integration efficiency (log2) for all listed variants.
1. TAAATTCTTATTGC
2. ATTTAACTATAACG T20G
3. ATTTAACTATAACG T31G
4. ATTTAACTATAACG G26A

[-0.485, -2, -1.44, -1.27]

meta.source: the supplement of paper PMC10201428
